test: gradient 5% acetonitrile 3 min, to 50% in 2 min, to 85% in 15 min, held 3 min, 100 µL/min; conditions: column: Zorbax Extend-C18 2.1 x 50 mm; eluents: water / acetonitrile, 0.1% formic acid
We begin with a simple list: items and their reported RP-LC retention time.
Give just the number in s; leave the unit off.

Challenge: # lookup: RP-LC retention time of Cc1nnc(CNC(=O)c2cc(-c3cccs3)[nH]n2)o1
Response given: 582

###

We begin with a simple list: items and their reported RP-LC retention time.
experiment: gradient 5% acetonitrile 3 min, to 50% in 2 min, to 85% in 15 min, held 3 min, 100 µL/min; conditions: column: Zorbax Extend-C18 2.1 x 50 mm; eluents: water / acetonitrile, 0.1% formic acid
Give just the number in s; leave the unit off.

# example entries with known answers
Challenge: # lookup: RP-LC retention time of COc1ncc(C(=O)N2CCN(c3ccccc3F)CC2)cn1
Response given: 770

Challenge: What do you get for COc1ccc(N2CCN(c3cc(SCC(=O)NCc4ccccc4)ncn3)CC2)cc1 ?
Response given: 823

Challenge: What do you get for O=C(Cc1nnc2cc(-c3nc(C4CC4)no3)ccn12)NCC1CC1 ?
Response given: 820

Challenge: What do you get for COc1cccc(-n2ccn3cc(-c4ccc(Cl)cc4)nc3c2=O)c1 ?
Response given: 875

Challenge: What do you get for COc1cc(Nc2ncc(F)c(Nc3ccc4c(n3)N(COP(=O)(O)O)C(=O)C(C)(C)O4)n2)cc(OC)c1OC ?
Response given: 653

Challenge: What do you get for Cc1ccc(CNC(=O)C2CCN(S(=O)(=O)c3cc(C(=O)N4CCCCCC4)cs3)CC2)o1 ?
Response given: 862

Challenge: What do you get for CNC(=O)c1cc2n(n1)CCCN(Cc1ccc(C)cc1)C2=O ?
Response given: 699

Challenge: What do you get for Cc1ccc(-c2noc(-c3cccc(S(=O)(=O)NCCCN4CCC(C)CC4)c3)n2)cc1 ?
Response given: 826

Let us move to another entry and its RP-LC retention time.
Challenge: # lookup: RP-LC retention time of COC(=O)c1ccc(C(=O)NCC(c2ccccc2Cl)N(C)C)cc1 (centres undefined)
Response given: 560

###

assay: gradient 5% acetonitrile 3 min, to 50% in 2 min, to 85% in 15 min, held 3 min, 100 µL/min; conditions: column: Zorbax Extend-C18 2.1 x 50 mm; eluents: water / acetonitrile, 0.1% formic acid
We begin with a simple list: items and their reported RP-LC retention time.
Give just the number in s; leave the unit off.

# example entries with known answers
Challenge: # lookup: RP-LC retention time of CCc1ccc(-n2ncc3c(=O)n(Cc4nc(-c5ccc(F)c(Cl)c5)no4)cnc32)cc1
Response given: 1250

Challenge: What do you get for COc1cc(O)cc(O)c1C(=O)/C=C/c1ccccc1 ?
Response given: 903

Continuing:
Challenge: # lookup: RP-LC retention time of O=C(c1ccnc(-c2cccs2)c1)N1CCN(c2ccccn2)CC1
Response given: 605

Challenge: What do you get for Cc1ccc(C(N)=Nc2ccccc2)cc1 ?
Response given: 650

Challenge: What do you get for CCc1nc(N)n(CC(=O)NCc2ccccc2)c(=O)c1C ?
Response given: 623

Challenge: What do you get for Cc1ccccc1CNC(=O)C1(C)CCN(S(=O)(=O)c2ccc(Br)cc2)CC1 ?
Response given: 1030

Challenge: What do you get for COc1cccc(-c2nc(C3CCN(S(=O)(=O)c4cccc(Cl)c4)CC3)no2)c1 ?
Response given: 1160

Challenge: What do you get for Cc1nnc(-c2ccc(OCC(=O)N(C(C)C)C(C)C)cc2)o1 ?
Response given: 708

Challenge: What do you get for Cc1c(S(=O)(=O)NCCC2CCN(C(=O)c3ccc(F)cc3)CC2)cnn1C(F)F ?
Response given: 813

Challenge: What do you get for CC(C)C[C@@H](C(=O)N[C@H](C(=O)OC1CCCC1)c1ccccc1)[C@H](O)C(=O)NO ?
Response given: 822

###

assay: gradient 5% acetonitrile 3 min, to 50% in 2 min, to 85% in 15 min, held 3 min, 100 µL/min; settings: column: Zorbax Extend-C18 2.1 x 50 mm; eluents: water / acetonitrile, 0.1% formic acid
Label MET for high-side RP-LC retention time (at or above 800 s) and NOT MET for low-side RP-LC retention time (below it).

Here's what some known entries look like.
Challenge: Tell me whether RP-LC retention time is at least 800 s here: CCOC(=O)c1ccc2nc(NC(=O)c3ccco3)sc2c1
Response given: MET

Challenge: What do you get for Cc1cccc(N2CCN(C(=O)C3CCN(S(=O)(=O)c4cccc5nsnc45)CC3)CC2)c1C ?
Response given: MET

Challenge: What do you get for CCCc1cc(N2CCN(C(=O)c3ccco3)CC2)nc2nnc(CC)n12 ?
Response given: NOT MET

Continuing:
Challenge: Tell me whether RP-LC retention time is at least 800 s here: Cc1nc2cc(N3CCCC(C(=O)NC4CCCCC4)C3)cnc2nc1C (stereo not given)
Response given: NOT MET

Challenge: What do you get for c1ccc(N2CCN(Cc3nc(-c4ccc(N5CCOCC5)nc4)no3)CC2)cc1 ?
Response given: NOT MET

Challenge: What do you get for COc1ccc(C2CC(=O)c3c([nH]c(C(=O)OC4CCCC4C)c3C)C2)cc1OC (stereo not given) ?
Response given: MET

###

test: gradient 5% acetonitrile 3 min, to 50% in 2 min, to 85% in 15 min, held 3 min, 100 µL/min; conditions: column: Zorbax Extend-C18 2.1 x 50 mm; eluents: water / acetonitrile, 0.1% formic acid
Label 1 for high-side RP-LC retention time (at or above 900 s) and 0 for low-side RP-LC retention time (below it).

Here's what some known entries look like.
Challenge: Tell me whether RP-LC retention time is at least 900 s here: COc1ccc(OCC(=O)N2CCCCC2CCN2CCOCC2)cc1 (stereo not given)
Response given: 0

Challenge: What do you get for CS(=O)(=O)c1ccc(Nc2nc(C(=O)Nc3ccc(F)c(Cl)c3)cs2)cc1 ?
Response given: 0

Challenge: What do you get for Cc1ccsc1C(=O)N1CCN(c2ccc(=O)n(-c3cccc(Cl)c3)n2)CC1 ?
Response given: 0

Challenge: What do you get for CC1CCN(c2ccc(-c3noc(CNC(=O)c4cccs4)n3)cc2)CC1 ?
Response given: 1

Challenge: What do you get for CCS(=O)(=O)N1CCCc2cc(C(=O)Nc3cc(OC)c(Cl)cc3OC)ccc21 ?
Response given: 1

Continuing:
Challenge: Tell me whether RP-LC retention time is at least 900 s here: CCCCN(CCCC)CCCOC(=O)c1ccc(N)cc1
Response given: 0

Challenge: What do you get for Cc1ccc2[nH]c(=O)c(CCC(=O)NCc3ccccn3)cc2c1 ?
Response given: 0

Challenge: What do you get for COc1ccc(NC(=O)c2nc(C)oc2C)cc1OC ?
Response given: 0

Challenge: What do you get for Cc1ccc(C(=O)Nc2nnc(SCc3nnc(-c4ccccc4C)o3)s2)cc1 ?
Response given: 1

Challenge: What do you get for CCN1C(=O)C2(CCN(C(=O)c3cn(C)cn3)CC2)c2ccccc21 ?
Response given: 0

Challenge: What do you get for COc1ccccc1-c1[nH]ncc1CN1CC(F)(F)C[C@H]1CN1CCOCC1 ?
Response given: 0

Challenge: What do you get for O=C(NCc1ccc2c(c1)OCO2)C1CC(=O)N(CCc2c[nH]c3ccc(Cl)cc23)C1 (stereo not given) ?
Response given: 0

Challenge: What do you get for O=C(Nc1ccc(F)cc1)Nc1ccc2nncn2c1 ?
Response given: 0

Challenge: What do you get for Cc1ccc(S(=O)(=O)N2CCC(c3nc(-c4ccccn4)no3)CC2)cc1C ?
Response given: 1

Challenge: What do you get for OC[C@@H]1CN(C2CCCC2)C[C@H]1c1nc(-c2cccnc2)no1 ?
Response given: 0

Challenge: What do you get for Cc1nn(-c2ccccc2)c(C)c1S(=O)(=O)N1CCC(C(=O)Nc2cccc(C#N)c2)CC1 ?
Response given: 1

Challenge: What do you get for Cn1nc(-c2nnc(-c3ccc(F)cc3)o2)c2c1CCN(S(=O)(=O)c1ccc(C(C)(C)C)cc1)C2 ?
Response given: 1

###

assay: gradient 5% acetonitrile 3 min, to 50% in 2 min, to 85% in 15 min, held 3 min, 100 µL/min; conditions: column: Zorbax Extend-C18 2.1 x 50 mm; eluents: water / acetonitrile, 0.1% formic acid
Quantity kind: RP-LC retention time (s)
Give just the number in s; leave the unit off.

# example entries with known answers
Challenge: # lookup: RP-LC retention time of CCS(=O)(=O)c1cccc(C(=O)Nc2nnc(-c3ccsc3)o2)c1
Response given: 662

Challenge: What do you get for O=C(NCCc1ccc(N2CCCC2)cc1)c1ccccc1 ?
Response given: 704

Challenge: What do you get for O=C(NCC1(c2cccs2)CCOCC1)c1nc2ccccc2s1 ?
Response given: 596

Challenge: What do you get for CCc1nc2onc(C)c2c(=O)n1CC(=O)NCc1ccc(F)cc1 ?
Response given: 783

Continuing:
Challenge: # lookup: RP-LC retention time of Cc1ccccc1OCC(=O)N1CCc2cc(-c3ccno3)ccc21
Response given: 971

Challenge: What do you get for CC(C)n1c(=O)sc2cc(S(=O)(=O)N3CCC(C(=O)NCc4ccccn4)CC3)ccc21 ?
Response given: 660
